B1: Tudor domain-containing protein 3, residues 554 to 611; numbered along this chain, Q9H7E2 (parent)
chain: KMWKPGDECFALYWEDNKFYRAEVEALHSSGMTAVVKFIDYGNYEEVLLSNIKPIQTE

Variants of: B1
protocol.notes: abundance fitness (aPCA) (normalised: wild type 0, dead -1); higher = more abundant; growth selection in yeast, the domain comes from the species named
reported.conditions: Homo sapiens
For each of the variants below, state its abundance fitness.
One number for each entry.

Below, 6 variants whose answers are already recorded.
Y41E = 0.042
W14G = 0.073
N17F = -0.65
L49I = -0.026
M32S = 0.02
L48H = -0.152

Record abundance fitness for all entries; do not skip any.
1. W3V
2. A22C
3. K4G
4. N51I

Result block:
[-0.053, -0.488, -0.486, -0.837]

Record abundance fitness for all entries; do not skip any.
1. L27Q
2. G42M
3. M32H
4. D16A

Result block:
[-1.13, -0.319, 0.086, -0.529]
